Data origin: ChEMBL document CHEMBL1132473

The compounds below have reported Ki for 4-aminobutyrate aminotransferase, mitochondrial (Sus scrofa, UniProt P80147).
assay endpoint: Ki (µM)

Qu. # query: Ki of entry N[C@H]1C=C[C@@H](C(=O)O)C1
Ans. 2700

1 = N[C@@H]1C=C[C@H](C(=O)O)C1
2 = N[C@H]1CC=C(C(=O)O)C1
Qu. // compare measured Ki between 1 and 2 ; output the lower one When you have decided, please share the label of that item.
Ans. 1
(1: 52 µM, 2: 72000 µM)
